Test system: Plasmodium falciparum
Assay Procedure: GSK_TCMDC: Inhibition of Plasmodium falciparum Dd2 in whole red blood cells, using parasite LDH activity as an index of growth. Test compounds present at 2uM
Type: functional
Value Kind: Inhibition (%)

Sample Smiles: CO/C(=C\C=C\c1cc2cc(Cl)c(Cl)cc2[nH]1)C(=O)NCCCN1CCN(c2cccc(OC)c2)CC1
Value Unit: %
Number: 93
--
Sample Smiles: Nc1nccc2ccc(-c3cccc(OCc4ccccc4)c3)cc12.O=C(O)C(F)(F)F
Value Unit: %
Number: 81
--
Sample Smiles: CC(C)Cn1cc(C2CCN(CCN3CCC(CNC(=O)c4ccc(-c5ccc(C#N)cc5)cc4)CC3)CC2)c2ccccc21
Value Unit: %
Number: 98
--
Sample Smiles: COc1cccc2c1CCN(CCN1CCC(CNC(=O)c3ccc(-c4ccc(C#N)cc4)cc3)CC1)C2
Value Unit: %
Number: 98
--
Sample Smiles: COc1ccccc1CCCN1C(=O)C(c2ccccc2)(c2ccccc2)N=C1N.O=C(O)C(F)(F)F
Value Unit: %
Number: 99
--
Sample Smiles: COc1ccc(N2CCN(CCCN3CCN(C(=O)c4ccc(/C=C/c5ccc(Cl)c(Cl)c5)cc4)CC3)CC2)c(OC)c1.O=C(O)/C=C/C(=O)O
Value Unit: %
Number: 52
--
Sample Smiles: CN(C)c1cc(NN=Cc2cc(Cl)ccc2O)nc(N(C)C)n1
Value Unit: %
Number: 98
--
Sample Smiles: COc1cccc(-c2ccc(C(=O)NC3CCN(Cc4ccc(C(C)(C)C)cc4)CC3)s2)c1.O=C(O)C(F)(F)F
Value Unit: %
Number: 23

###

System: HepG2
Assay Procedure: GSK_TCMDC: Percent inhibition of human HepG2 cell line. Test compounds present at 10uM.
Assay type: functional
Value Kind: Inhibition (%)

Sample Smiles: O=C(c1ccccc1)N1CCC[C@](CCCN2CCN(c3ccccc3O)CC2)(c2ccc(Cl)c(Cl)c2)C1
Assay Target: HepG2
Value Kind: Inhibition
Number: 16
--
Sample Smiles: Cc1cccc2nc(-c3cccc(-c4cccc(CNCc5cnn(-c6ccccc6)n5)c4)c3)[nH]c12.O=C(O)C(F)(F)F
Assay Target: HepG2
Value Kind: Inhibition
Number: 12
--
Sample Smiles: COc1cccc([C@@H](CC(=O)Nc2cc(C(F)(F)F)ccc2OC)Nc2ccc(C#N)c3ccccc23)c1
Assay Target: HepG2
Value Kind: Inhibition
Number: 19
--
Sample Smiles: CCCNCc1ccc(-c2ccc(CN(Cc3ccc4c(c3)OCO4)C(=O)[C@H]3CCCO3)cc2)nc1.O=C(O)C(F)(F)F
Assay Target: HepG2
Value Kind: Inhibition
Number: 18

###

System: HepG2
Assay Procedure: GSK_TCMDC: Percent inhibition of human HepG2 cell line. Test compounds present at 10uM.
Type: functional
Value Kind: Inhibition (%)

Sample Smiles: CO/C(=C\C=C/c1cc2cc(Cl)c(Cl)cc2[nH]1)C(=O)NC1CC(C)(C)N(C)C(C)(C)C1
Number: 65
//
Sample Smiles: CN1CCC(N(Cc2ccc(-c3ccc(C(F)(F)F)cc3)nc2)C(=O)Cn2c(CCc3cccc(F)c3F)cc(=O)c3ccccc32)CC1.O=C(O)C(O)C(O)C(=O)O
Number: 60
//
Sample Smiles: COc1ccc(-c2ccc(NC(=O)c3ccc(C#N)cc3)c(F)c2)cc1CN(C)CCN(C)C.O=C(O)C(F)(F)F
Number: 24
//
Sample Smiles: COc1cccc(CNC(=O)c2ccnc(-c3cccc(CN(C)C4CCN(C)CC4)c3)c2)c1.O=C(O)C(F)(F)F
Number: 19
